target: full-length beta-Catenin (Uniprot ID P35222) (Homo sapiens (Human)) (UniProt P35222); experiment: fluorescence polarization competition; full-length beta-catenin, 5FAM-TCF4(10-53) probe
Sequence (P35222 2-781 limits assumed): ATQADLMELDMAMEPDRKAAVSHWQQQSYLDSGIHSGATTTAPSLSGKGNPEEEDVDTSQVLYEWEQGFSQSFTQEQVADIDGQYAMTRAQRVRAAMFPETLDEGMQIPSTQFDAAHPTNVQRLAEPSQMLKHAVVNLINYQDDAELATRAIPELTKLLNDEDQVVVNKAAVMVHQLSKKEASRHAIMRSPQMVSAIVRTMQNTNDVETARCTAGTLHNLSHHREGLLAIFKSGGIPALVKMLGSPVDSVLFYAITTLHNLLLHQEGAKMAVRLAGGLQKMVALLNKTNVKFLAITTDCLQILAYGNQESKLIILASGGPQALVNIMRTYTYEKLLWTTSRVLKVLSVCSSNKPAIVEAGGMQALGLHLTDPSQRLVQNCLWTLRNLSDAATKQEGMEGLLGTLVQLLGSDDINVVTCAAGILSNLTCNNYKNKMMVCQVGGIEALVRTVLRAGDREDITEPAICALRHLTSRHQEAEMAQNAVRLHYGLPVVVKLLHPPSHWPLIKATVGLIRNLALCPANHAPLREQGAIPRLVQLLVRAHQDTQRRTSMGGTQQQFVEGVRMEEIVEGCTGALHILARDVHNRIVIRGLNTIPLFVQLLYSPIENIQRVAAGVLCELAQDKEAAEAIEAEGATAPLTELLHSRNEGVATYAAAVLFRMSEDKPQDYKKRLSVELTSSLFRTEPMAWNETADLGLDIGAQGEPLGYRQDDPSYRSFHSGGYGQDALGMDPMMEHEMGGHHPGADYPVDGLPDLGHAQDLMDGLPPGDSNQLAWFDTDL
Starred links: 1 amine or outer side, 2 acyl side, 3 side chain; linkers in the order of their positions; H or OH if unused. Positions of bridges follow the written chain, without caps; N, C: chain ends. Non-standard residues stand in square brackets, D forms with d. Primed or numbered codes have the meaning given here. PyrS2″ = (S)-3-amino-1-((pent-4-en-1-yloxy)carbonyl)pyrrolidine-3-carboxylic acid (stapling residue), C=CCCCOC(=O)N1CC[C@@](N[*:1])(C(=O)[*:2])C1; TfeGA = (S)-2-amino-3-((carboxymethyl)(2,2,2-trifluoroethyl)amino)propanoic acid, O=C([C@H](CN(CC(=O)[*:3])CC(F)(F)F)N[*:1])[*:2]; PyrS2 = (S)-3-amino-1-((pent-4-en-1-yloxy)carbonyl)pyrrolidine-3-carboxylic acid, C=CCCCOC(=O)N1CC[C@@](N[*:1])(C(=O)[*:2])C1; B5(22) = 2-amino-2-(pent-4-en-1-yl)hept-6-enoic acid (two alkene side chains), C=CCCCC(CCCC=C)(N[*:1])C(=O)[*:2]; B5(3) = 2,2-bis(4-pentenyl)glycine (stitching residue), C=CCCCC(CCCC=C)(N[*:1])C(=O)[*:2]; B5 = 2-amino-2-(pent-4-en-1-yl)hept-6-enoic acid, C=CCCCC(CCCC=C)(N[*:1])C(=O)[*:2]; Bta = N[C@@H](Cc1csc2ccccc12)C(=O)O; αAllylPro = C=CC[C@@]1(C(=O)O)CCCN1; tBuAla = CC(C)(C)C[C@H](N)C(=O)O; 3Thi = N[C@@H](Cc1ccsc1)C(=O)O
Kindly state pIC50 for each of the entries shown.
One number for each entry, as −log10 of the molar value.

Ac-[αAllylPro]D[tBuAla][B5(3)]NTAAFN[PyrS2″][3Thi][Bta]W-NH2 (staple 1-4, 4-11; also: earlier eluting HPLC isomer) [I-2138]    5.99
Ac-[αAllylPro]D[tBuAla][B5(22)]D[TfeGA]AAFN[PyrS2][3Thi][Bta]S-NH2 (staple 1-4, 4-11; also: staple isomer composition, later-eluting HPLC peak) [I-941]    5.68
Ac-[αAllylPro]D[tBuAla][B5]TTAAFN[PyrS2][3Thi][Bta]Q-NH2 (staple 1-4, 4-11; also: earlier eluting HPLC isomer) [I-2148]    5.00

Req: Need pIC50, item Ac-[αAllylPro]D[tBuAla][B5]NTAAFN[PyrS2][3Thi][Bta]H-NH2 (staple 1-4, 4-11; also: earlier eluting HPLC isomer) [I-2140]
Resp: 6.63
